- system.tested: Chromo domain-containing protein 1 (Saccharomyces cerevisiae (strain ATCC 204508 / S288c) (Baker's yeast)) (UniProt P32657)
- Sequence (P32657 whole entry, the tested form may be a part): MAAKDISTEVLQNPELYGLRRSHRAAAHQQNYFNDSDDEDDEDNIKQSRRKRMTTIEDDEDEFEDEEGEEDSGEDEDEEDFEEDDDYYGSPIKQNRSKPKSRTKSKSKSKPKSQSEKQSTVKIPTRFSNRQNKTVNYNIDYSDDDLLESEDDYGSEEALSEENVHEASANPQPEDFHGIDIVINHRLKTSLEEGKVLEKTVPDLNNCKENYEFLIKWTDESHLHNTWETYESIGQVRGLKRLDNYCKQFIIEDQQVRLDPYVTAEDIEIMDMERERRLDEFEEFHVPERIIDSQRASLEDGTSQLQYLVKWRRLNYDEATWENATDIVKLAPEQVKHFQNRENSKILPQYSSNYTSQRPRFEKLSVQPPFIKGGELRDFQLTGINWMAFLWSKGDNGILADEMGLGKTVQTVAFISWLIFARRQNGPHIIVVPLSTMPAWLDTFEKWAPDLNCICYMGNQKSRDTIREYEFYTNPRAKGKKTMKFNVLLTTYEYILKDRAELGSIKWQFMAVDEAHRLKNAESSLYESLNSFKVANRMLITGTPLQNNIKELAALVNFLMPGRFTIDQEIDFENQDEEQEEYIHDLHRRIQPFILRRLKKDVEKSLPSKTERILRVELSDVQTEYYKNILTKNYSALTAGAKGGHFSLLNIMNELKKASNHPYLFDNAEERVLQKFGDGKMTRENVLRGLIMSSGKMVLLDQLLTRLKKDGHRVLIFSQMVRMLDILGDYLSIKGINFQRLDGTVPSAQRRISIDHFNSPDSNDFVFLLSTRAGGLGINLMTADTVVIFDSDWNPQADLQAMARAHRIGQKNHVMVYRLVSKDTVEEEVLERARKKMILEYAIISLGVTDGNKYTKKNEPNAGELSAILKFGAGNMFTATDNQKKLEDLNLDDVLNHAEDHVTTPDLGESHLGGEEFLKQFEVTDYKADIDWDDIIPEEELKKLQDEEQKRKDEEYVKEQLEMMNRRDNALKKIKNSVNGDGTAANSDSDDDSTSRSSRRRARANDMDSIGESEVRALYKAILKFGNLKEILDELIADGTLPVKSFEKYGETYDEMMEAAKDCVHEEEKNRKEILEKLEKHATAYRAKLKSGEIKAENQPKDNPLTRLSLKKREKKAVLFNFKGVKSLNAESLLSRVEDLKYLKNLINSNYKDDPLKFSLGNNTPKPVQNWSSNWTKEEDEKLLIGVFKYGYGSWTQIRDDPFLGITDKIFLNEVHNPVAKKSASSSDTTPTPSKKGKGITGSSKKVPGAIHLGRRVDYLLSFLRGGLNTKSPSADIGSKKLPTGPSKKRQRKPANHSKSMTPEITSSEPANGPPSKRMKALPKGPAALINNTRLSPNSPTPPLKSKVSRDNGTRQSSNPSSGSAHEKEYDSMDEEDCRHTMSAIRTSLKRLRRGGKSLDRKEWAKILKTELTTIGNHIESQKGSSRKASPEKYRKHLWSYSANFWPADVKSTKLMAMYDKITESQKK
- test.details: ScCHD-1 Enzyme Inhibition Assay
- Assay type: functional
- Design: scale not given: in the data most compounds retested in dose-response had high values
- experimental.conditions: 30 µM
Examples of compounds with documented Percent Effect follow.
Numeric answer only, unit % assumed.

Below: 5 compounds and their reported Percent Effect.
>>> measured("CCN1CCOC(CNCc2ccccc2OCC(=O)N(C)C)C1 (stereo not drawn)")
-2.56
>>> measured("COCCc1noc(CN(C)C2CCCN(c3ccc(C)nn3)C2)n1 (stereo not drawn)")
-2.05
>>> measured("Cn1cnc(S(=O)(=O)N2CCCC2)c1Cl")
-2.89
>>> measured("Cn1ncc2c1C(COCC1CC1)CN(Cc1ccc(F)cc1)C2 (stereo not drawn)")
-6.67
>>> measured("Cc1nc(CN2C[C@@H]3CN(C(=O)c4cnccn4)C[C@@H]3C2)cs1")
-3.57

Query string: Identify measured Percent Effect associated with COc1cc2nc3n(c(=O)c2cc1OC)CCN(C)CC3
Result string: -5.62

Query string: Identify measured Percent Effect associated with Cc1nc(C2CCCN(C(=O)c3cnn(C(C)(C)C)c3)C2)no1 (stereo not drawn)
Result string: -34.2

Query string: Identify measured Percent Effect associated with NC(=O)C1(Cc2ccccc2-c2ccccc2)CCCN(CC2CC2)C1 (stereo not drawn)
Result string: -2.97

Query string: Identify measured Percent Effect associated with Cc1ncc(CNC(=O)Nc2cc(C(F)(F)F)c[nH]c2=O)s1
Result string: 0.478

Query string: Identify measured Percent Effect associated with Cc1cc(C)c(CNC(=O)NCc2ccc3c(c2)CCC3)c(=O)[nH]1
Result string: 0.252
